# targetOrTestSystem: T1, recombinant hCTLA-4-mFc (human CTLA-4 extracellular domain with a C-terminal Fc portion of mouse IgG2a) (human)
# T1 construct: also called dimeric CTLA-4 protein
# T1 sequence (chain, as listed by the source limits assumed): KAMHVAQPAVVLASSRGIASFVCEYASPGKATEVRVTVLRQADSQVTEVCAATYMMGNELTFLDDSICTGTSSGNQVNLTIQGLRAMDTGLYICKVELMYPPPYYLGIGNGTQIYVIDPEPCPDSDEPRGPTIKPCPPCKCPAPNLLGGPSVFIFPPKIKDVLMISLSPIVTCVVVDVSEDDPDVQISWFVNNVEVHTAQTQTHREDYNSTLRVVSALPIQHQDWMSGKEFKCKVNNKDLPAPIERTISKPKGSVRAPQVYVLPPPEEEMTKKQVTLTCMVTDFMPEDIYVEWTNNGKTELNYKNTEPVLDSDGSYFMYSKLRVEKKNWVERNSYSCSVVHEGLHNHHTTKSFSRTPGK
# assayProtocol: competition ELISA, 400 pM hCTLA-4-mFc on plate-coated hB7-2-hIgG1-6His
valueKind: % Blockade (%)
Write down the numeric answer in % and omit the unit.

Supply measured % Blockade of H1H20372N (antibody, human IgG1, V domains shown, here with human IgG1 Fc (H1H)) VH: EVQLVESGGGLVQPGRSLRLSCAGTGFIFDDYAMHWVRQAPGKGLEWVSGISWNSNSLGYADSVKGRFTISRDNAKKSLYLQMSSLRAEDTALYYCVKDVTRLELRGFLDYWGQGTQVTVSS VL: DIQMTQSPSSLSASVGDRVTITCRASQDIRNDLGWHQQKSGKAPKSLIYAASSLQSGAPSRFSGSGSGTEFTLTISSLQPEDSATYYCLQQNSYPPTFGQGTKVEIK in your reply.
98

Using known records, supply % Blockade for H1H19313P (antibody, human IgG1, V domains shown) VH: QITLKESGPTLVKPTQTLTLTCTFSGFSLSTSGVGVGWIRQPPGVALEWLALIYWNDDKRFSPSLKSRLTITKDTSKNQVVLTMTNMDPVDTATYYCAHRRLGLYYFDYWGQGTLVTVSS VL: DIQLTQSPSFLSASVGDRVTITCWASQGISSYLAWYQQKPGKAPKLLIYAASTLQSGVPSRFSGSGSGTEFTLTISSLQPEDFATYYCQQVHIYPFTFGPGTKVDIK
99

Specify % Blockade for H1H19307P (antibody, human IgG1, V domains shown) VH: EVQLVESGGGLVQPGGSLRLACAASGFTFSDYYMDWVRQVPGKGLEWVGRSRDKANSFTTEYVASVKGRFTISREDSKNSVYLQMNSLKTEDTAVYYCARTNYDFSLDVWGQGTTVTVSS VL: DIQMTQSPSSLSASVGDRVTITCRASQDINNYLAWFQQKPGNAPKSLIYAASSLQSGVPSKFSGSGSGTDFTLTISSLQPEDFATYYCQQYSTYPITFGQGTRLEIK and stop.
99
